Target: UniProt:P08684
Assay: Cytochrome P450 inhibition IC50 determination (isoform CYP3A4)
Format: in vitro ADME
Settings: human, probe testosterone; CYP3A4, 0.25 μM; read-out: % inhibition with substrate testosterone
Description: Two thirds of drugs cleared by metabolism are metabolised at least in part by the cytochrome P450 (CYP) enzymes with the isoform CYP3A4 accounting for almost 50% of all CYP activity. For this reason, we tested whether CYP3A4 is implicated in the clearance of o-TFB-Tyr. […]
PROPERTY_NAME: inhibition at 0.25 µM (%)
Answers are plain numbers, in %.

Prompt line: Quick one: give measured inhibition at 0.25 µM for N[C@@H](Cc1ccc(O)cc1)C(=O)NCc1ccccc1C(F)(F)F [o-TFB-Tyr]
Response line: 0.136

====

test: Intestinal permeability assay in Caco-2 cells; type: in vitro ADME, human; details: human, Caco-2, Caco2, B to A; read-out: Direction B to A Mean % recovery
PROPERTY_NAME: recovery (%)
Answers are plain numbers, in %.

Prompt line: Quick one: give measured recovery for N[C@@H](Cc1ccc(O)cc1)C(=O)NCc1ccccc1C(F)(F)F [o-TFB-Tyr]
Response line: 88.9

====

Biological target: CYP3A4 (Homo sapiens)
Sequence (P08684 whole entry, canonical isoform): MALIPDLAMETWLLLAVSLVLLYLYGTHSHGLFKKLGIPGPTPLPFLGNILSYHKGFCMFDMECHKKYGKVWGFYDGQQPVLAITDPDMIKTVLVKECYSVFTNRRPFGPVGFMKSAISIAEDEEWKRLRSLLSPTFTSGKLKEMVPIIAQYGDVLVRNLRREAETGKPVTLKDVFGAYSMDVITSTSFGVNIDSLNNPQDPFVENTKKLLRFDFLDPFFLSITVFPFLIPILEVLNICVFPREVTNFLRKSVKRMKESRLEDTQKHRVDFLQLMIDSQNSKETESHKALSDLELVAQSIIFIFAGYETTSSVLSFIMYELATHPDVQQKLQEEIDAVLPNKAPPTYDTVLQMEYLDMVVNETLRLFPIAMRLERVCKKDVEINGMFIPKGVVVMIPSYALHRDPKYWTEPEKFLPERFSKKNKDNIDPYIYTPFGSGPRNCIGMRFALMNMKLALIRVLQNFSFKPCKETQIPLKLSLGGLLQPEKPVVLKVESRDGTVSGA
Assay: Cytochrome P450 inhibition IC50 determination (isoform CYP3A4)
Type: in vitro ADME
Conditions: human, probe testosterone; CYP3A4, 0.1 μM; read-out: % inhibition with substrate testosterone
Excerpt: Two thirds of drugs cleared by metabolism are metabolised at least in part by the cytochrome P450 (CYP) enzymes with the isoform CYP3A4 accounting for almost 50% of all CYP activity. For this reason, we tested whether CYP3A4 is implicated in the clearance of o-TFB-Tyr. […]
PROPERTY_NAME: inhibition at 0.1 µM (%)
Answers are plain numbers, in %.

Prompt line: Quick one: give measured inhibition at 0.1 µM for `N[C@@H](Cc1ccc(O)cc1)C(=O)NCc1ccccc1C(F)(F)F`
Response line: -0.99

====

assay: Intestinal permeability assay in Caco-2 cells; assay type: in vitro ADME, human; details: human, Caco-2, Caco2, A to B; read-out: Direction A to B Mean % recovery
PROPERTY_NAME: recovery

Prompt line: Quick one: give measured recovery for `N[C@@H](Cc1ccc(O)cc1)C(=O)NCc1ccccc1C(F)(F)F`
Response line: 62.8%

====

test system: Caco-2 cells; assay: Intestinal permeability assay in Caco-2 cells; type: in vitro ADME, human; conditions: Caco2, B to A
PROPERTY_NAME: Direction B to A Mean Papp (×10⁻⁶ cm/s)
One number for each entry, in ×10⁻⁶ cm/s.

Prompt line: Quick one: give measured Direction B to A Mean Papp for N[C@@H](Cc1ccc(O)cc1)C(=O)NCc1ccccc1C(F)(F)F [o-TFB-Tyr]
Response line: 19.1

====

assay: Plasma protein binding assay (mouse); type: in vitro ADME; settings: plasma, plasma spiked 1 side, read-out: Fraction unbound Replicate 2
PROPERTY_NAME: fraction unbound
Numbers only.

Prompt line: Quick one: give measured fraction unbound for N[C@@H](Cc1ccc(O)cc1)C(=O)NCc1ccccc1C(F)(F)F [o-TFB-Tyr]
Response line: 0.28

====

Test: Plasma protein binding assay (human)
Assay type: in vitro ADME
Details: plasma spiked 1 side
From the text: Non-specific plasma protein binding can greatly affect the extent of free drug concentration which may influence the lead compound's subsequent inhibitory potential (see table 6 below).
PROPERTY_NAME: recovery (%)
Give bare numbers, in %.

Prompt line: Quick one: give measured recovery for `N[C@@H](Cc1ccc(O)cc1)C(=O)NCc1ccccc1C(F)(F)F`
Response line: 101
